Assay: Liver microsome metabolic stability test, human
Type: in vitro ADME
Details: liver microsomes, 0.5 mg/mL protein, read-out: T½
experimental.readout: half-life (h)

a. Nc1nccn2c(C3CCC(CO)OC3)nc(-c3ccc(Cc4ccccc4)cc3)c12 (stereo not shown) [Compound 106]
b. Nc1nccn2c(C3CCC(CO)OC3)nc(-c3ccc(C(=O)c4ccccc4)cc3)c12 (stereo not shown) [Compound 26]
# input Would you let me know which has the greater half-life value, a or b ? Bench note: the answer is the label of the chosen record.
# output a
(a: 1.76 h, b: 0.742 h)

* * *

Experiment: Liver microsome metabolic stability test, rat
Assay type: in vitro ADME
Details: liver microsomes, 0.5 mg/mL protein, read-out: T½
Method: 1: To the sample wells of T0, T5, T10, T20, T30, T60 and NCF60, 10 µL of the test or reference working solution and 80 µL of microsome working solution (hepatic microsome with a protein concentration of 0.5 mg/mL) were added, and to Blank60 well, only the microsome working solution was added. […] 6: Data analysis: T½ and CLint(mic) (µL/min/mg) values were calculated according to the first-order elimination kinetics. […]
experimental.readout: half-life (min)

Sample records with half-life:
half-life recorded for this compound, Nc1nccn2c(C34CCC(CO)(CC3)OC4)nc(-c3ccc(C(=O)Nc4cc(C(F)(F)F)ccn4)cc3)c12 [Compound 118] , is 101

half-life recorded for this compound, Nc1nccn2c(C34CCC(CO)(CC3)OC4)nc(-c3ccc(C(F)(F)c4cccc(Cl)c4F)cc3)c12 [Compound 152] , is 13.5

half-life recorded for this compound, Nc1nccn2c(C3CCC(CO)OC3)nc(-c3ccc(C(=O)Nc4cc(C(F)(F)F)ccn4)cc3)c12 (single isomer, unassigned) [Compound 109-P1] , is 114

half-life recorded for this compound, Cc1cccc(Oc2ccc(-c3nc(C4CCC(CO)OC4)n4ccnc(N)c34)cc2)c1F (stereo not shown) [Compound 24] , is 5.4

half-life recorded for this compound, Cc1cc(Nc2ncnc3ccc(NC4=NC(C)(C)CO4)cc23)ccc1Oc1ccn2ncnc2c1 [Tucatinib, reference compound] , is 39.8

half-life recorded for this compound, COc1cccc(Oc2ccc(-c3nc(C4CCC(CO)OC4)n4ccnc(N)c34)cc2)c1 (stereo not shown) [Compound 101] , is 46.5

A. Cc1ccnc(NC(=O)c2ccc(-c3nc(C4CCC(CO)OC4)n4ccnc(N)c34)cc2)c1 (stereo not shown) [Compound 70]
B. Nc1nccn2c(C34CCC(CO)(CC3)OC4)nc(-c3ccc(C(F)(F)c4ccccc4Cl)cc3)c12 [Compound 155]
# input Form: Entry with minimum half-life (choose one): A / B Bench note: the answer is the label of the chosen record.
# output B
(B: 22.3 min, A: 45.7 min)

I. Nc1nccn2c(C34CCC(CO)(CC3)OC4)nc(-c3ccc(C(F)(F)c4ccccc4)cc3)c12 [Compound 125]
II. CC#CC(=O)N1CC[C@@H](n2c(=O)n(-c3ccc(Oc4ccccc4)cc3)c3c(N)ncnc32)C1 [Tirabrutinib, reference compound]
# input Form: Entry with minimum half-life (choose one): I / II Bench note: the answer is the label of the chosen record.
# output II

// data source = patent US20230364079A1
